# Test system: enzyme preparation NAPS-1 (protease PFUS)
# test summary: Effects of various reagents on enzyme preparation NAPS-1
# Format: biochemical, Pyrococcus furiosus
# experimental conditions: treated at 37° C. for 30 minutes, reagent final concentration 1 mM; control 100%
Square brackets hold non-standard residues; d marks the D form. Peptide text beside a SMILES is read from it. * marks the point of attachment. Sta = CC(C)C[C@H](N)[C@@H](O)CC(=O)O; Isovaleryl = CC(C)CC(=O)*
Decide by enzyme activity of NAPS-1 after treatment with reagent, compared with control (no reagent): equal to or exceeding 7% means Yes, less means No.

# molecule, label value
data = [
    ("CC(=O)N[C@@H](CC(C)C)C(=O)N[C@@H](CC(C)C)C(=O)N[C@H](C=O)CCCNC(=N)N [Leupeptin]", "Yes"),
    ("CC(C)C[C@H](NC(=O)[C@@H](NC(=O)N[C@@H](Cc1ccccc1)C(=O)O)[C@@H]1CCN=C(N)N1)C(=O)N[C@H](C=O)Cc1ccccc1 [Chymostatin]", "No"),
    ("CC(C)CC(=O)N[C@H](C(=O)N[C@H](C(=O)N[C@@H](CC(C)C)[C@@H](O)CC(=O)N[C@@H](C)C(=O)N[C@@H](CC(C)C)[C@@H](O)CC(=O)O)C(C)C)C(C)C [Pepstatin] (Isovaleryl-VV[Sta]A[Sta]-OH)", "Yes"),
    ("O=C(O)CN(CCN(CC(=O)O)CC(=O)O)CC(=O)O [EDTA]", "Yes"),
    ("O=S(=O)(F)Cc1ccccc1 [PMSF, phenylmethanesulfonyl fluoride]", "No"),
    ("CCN1C(=O)C=CC1=O [N-ethylmaleimide]", "Yes"),
]
